System: KM12
Test: NCI tumour cell line growth inhibition, 48 h
Calls of active or inactive are those of the source. Rule as the data show it: active = GI50 up to about 1.1 µM and inactive = higher.
propertyLabel: GI50

Here is how some compounds turned out for GI50.
>  <compound>
Cc1cc(CC(=O)NCCO)n(CCO)c(=O)c1

>  <GI50>
> 100 µM (inactive)

$$$$
>  <compound>
O=[N+]([O-])c1ccc(CSc2nn(Cc3ccc([N+](=O)[O-])cc3)cc3ncnc2-3)cc1

>  <GI50>
30.4 µM (inactive)

$$$$
>  <compound>
CCCCCCCCCCCCCCCCP(=O)(O)OP(=O)(O)OCC1OC(n2cnc3c(N)ncnc32)C(O)C1O (stereo not given)

>  <GI50>
26.1 µM (inactive)

$$$$
>  <compound>
COC(=O)C1=C(O)C(C(=O)OC)[C@@]2(O)[C@@H](C(=O)OC)C(c3ccc(OC(=O)/C=C/c4ccccc4)cc3)C[C@@H]1[C@@H]2C(=O)OC (stereo not given in full)

>  <GI50>
5.37 µM (inactive)

$$$$

Now consider the entry below.
QUERY: Using the record for CC(=O)NC(CCCCNC(=O)NCCCl)C(=O)NCc1ccccc1 (stereo not given) , report its GI50.
RESULT: > 100 µM (inactive)
